Listed binders paired with reported log10 koff
# target entity: T1, Human ALPPL2 (leucine zipper) (human)
# T1 construct: Whole entry: fused with a cysteine stabilised leucine zipper and His tag; also called hALPPL2
# T1 chain: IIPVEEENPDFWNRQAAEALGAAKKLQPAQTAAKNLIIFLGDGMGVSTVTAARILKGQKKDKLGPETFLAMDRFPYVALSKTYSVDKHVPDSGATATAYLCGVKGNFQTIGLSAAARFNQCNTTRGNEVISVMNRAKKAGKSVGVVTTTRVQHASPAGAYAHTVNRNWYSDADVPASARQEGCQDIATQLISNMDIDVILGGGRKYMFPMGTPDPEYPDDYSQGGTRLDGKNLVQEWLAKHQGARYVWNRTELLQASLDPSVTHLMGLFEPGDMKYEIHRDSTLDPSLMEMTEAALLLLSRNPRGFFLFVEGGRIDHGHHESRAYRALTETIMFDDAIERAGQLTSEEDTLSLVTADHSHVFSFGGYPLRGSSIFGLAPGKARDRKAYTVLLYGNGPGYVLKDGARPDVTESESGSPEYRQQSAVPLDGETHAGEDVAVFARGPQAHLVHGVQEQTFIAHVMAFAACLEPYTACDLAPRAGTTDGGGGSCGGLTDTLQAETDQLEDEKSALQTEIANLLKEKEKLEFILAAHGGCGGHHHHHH
# assay notes: BLI, antigen immobilised
parameter measured: log10 koff (log10 of the value in s⁻¹)

binder	log10 koff
B01 His (VHH, not shown: small tags and cut ends) VHH: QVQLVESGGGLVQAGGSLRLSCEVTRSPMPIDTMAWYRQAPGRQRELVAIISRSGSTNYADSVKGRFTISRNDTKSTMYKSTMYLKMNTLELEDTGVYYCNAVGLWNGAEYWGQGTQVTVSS	-3.85
E06 His (VHH, not shown: small tags and cut ends) VHH: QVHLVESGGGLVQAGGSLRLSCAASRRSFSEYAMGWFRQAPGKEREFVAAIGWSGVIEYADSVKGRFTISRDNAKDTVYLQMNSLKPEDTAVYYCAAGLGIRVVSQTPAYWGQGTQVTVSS	-4.06
A06 His (VHH, not shown: small tags and cut ends, also called #250) VHH: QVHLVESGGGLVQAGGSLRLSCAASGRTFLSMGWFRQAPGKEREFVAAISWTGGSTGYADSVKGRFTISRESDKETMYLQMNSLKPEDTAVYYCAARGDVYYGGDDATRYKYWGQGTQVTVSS	-3.17
D10 His (VHH, not shown: small tags and cut ends) VHH: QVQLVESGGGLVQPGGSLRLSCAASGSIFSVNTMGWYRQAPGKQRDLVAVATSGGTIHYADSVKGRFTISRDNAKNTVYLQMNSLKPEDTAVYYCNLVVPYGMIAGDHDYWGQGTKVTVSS	-2.55
E10 His (VHH, not shown: small tags and cut ends, also called #265) VHH: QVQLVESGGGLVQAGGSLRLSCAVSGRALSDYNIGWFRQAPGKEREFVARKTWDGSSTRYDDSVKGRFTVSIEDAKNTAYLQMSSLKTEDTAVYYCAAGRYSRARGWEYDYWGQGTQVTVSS	-3.85
C07 His (VHH, not shown: small tags and cut ends, also called #258) VHH: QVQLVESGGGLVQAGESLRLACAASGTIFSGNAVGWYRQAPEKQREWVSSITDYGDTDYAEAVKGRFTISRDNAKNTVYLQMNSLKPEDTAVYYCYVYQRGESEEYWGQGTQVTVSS	-3.54
F05 His (VHH, not shown: small tags and cut ends) VHH: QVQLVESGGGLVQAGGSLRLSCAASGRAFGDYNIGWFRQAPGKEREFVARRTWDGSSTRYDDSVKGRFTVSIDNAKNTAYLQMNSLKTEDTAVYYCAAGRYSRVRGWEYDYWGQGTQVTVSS	-3.45
